target: TDP-43 (Homo sapiens, UniProt Q13148 1-414); experiment: RNA Bind-n-Seq with designed 260-mer pool; 25 mM Tris-HCl, 150 mM KCl, 3 mM MgCl2, BSA (printed 500 mg/mL), 20 units/mL SUPERase IN; pH not stated; 500 nM RNA pool, 1 h, 4 C; TDP-43 5, 50, 500 nM; high values mean tight binding; conditions: protein: recombinant; tags: SBP (GST cleaved off with PreScission; pGEX-GST-SBP)
Sequence (Q13148 whole entry): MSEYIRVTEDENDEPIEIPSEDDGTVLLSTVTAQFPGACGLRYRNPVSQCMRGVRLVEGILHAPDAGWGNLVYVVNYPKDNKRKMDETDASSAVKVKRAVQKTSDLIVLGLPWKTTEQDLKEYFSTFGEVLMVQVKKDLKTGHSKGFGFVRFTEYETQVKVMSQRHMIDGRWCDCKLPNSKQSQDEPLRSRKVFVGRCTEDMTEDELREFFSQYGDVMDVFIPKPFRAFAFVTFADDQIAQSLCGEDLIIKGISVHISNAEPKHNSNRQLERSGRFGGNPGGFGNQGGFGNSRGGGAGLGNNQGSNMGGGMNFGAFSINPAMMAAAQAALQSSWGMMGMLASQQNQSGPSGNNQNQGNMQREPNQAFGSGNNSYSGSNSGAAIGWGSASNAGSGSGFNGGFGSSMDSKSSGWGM
Whole data set: some 9,900 sequences, median “r (bound/input frequency ratio)” near 0.7, cut for the highest 2% near 6.5. The list comes from a sample in which the highest values are over-represented; it also holds close analogues and randomly drawn sequences.
Measured binding signal by item

Binder	binding signal
ENSMUSG00000031028.626|Tub (ssRNA) RNA: GGGAGUUCUACAGUCCGACGAUCGCUUCGAUAUCCGCAUGCUAUUAGGGUAAAUGAAAGUUAGUCCUGGCUCUCAUCACCACCUUUCCUAGCUCAUCACUGUGCCUUCUUUCUUCCCUAAGAAAGACAAUGCACCCCUCUCUUCUGUUCUCCUGCCCCUUCGCCCCCACUGAGGUCCAGGUAGAGCAGAUGAGGCUGAAAUGUAGAGUGUUCUAUAGAGCAUCUCAGUAGCAUAGAAGGAGAAGCCCAGCUCCAACCUCCUGGACCCCAUACUGGUGACCAGCUUGGUGAGGACAGGCAAAAUCUCUUGCGGUCGCACUAGUGUGGAAUUCUCGGGUGUCAAGG	0.915 R (bound/input frequency ratio)
ENSMUSG00000061578.1348|Ksr2 (ssRNA) RNA: GGGAGUUCUACAGUCCGACGAUCGCUUCGAUAUCCGCAUGCUACUCUUCCUCCUGUCCCACAGCCCCCAGGUCAGAGCCAAGCGCAUCAUCUGCAGCACACAUGUCUGUCUCCACAGGCAAGCAACCUUGCCAAGGCAGGCCAGACAGGACAGCCCAGCUUCCCACUCCAGACAUGUUGUUCUUACAUCUCUGACCCAGUGAUCUUUCUAGGGGUCUGUCACAUGUCCCAACAGGUGGACAGCUCUCCAAGUCACCAACCUGAGGAAAAUAUCCCUCCUUGUAAAAAGGCUUUCUCUUUGUAACUCUUGCGGUCGCACUAGUGUGGAAUUCUCGGGUGUCAAGG	0.533 R (bound/input frequency ratio)
ENSMUSG00000004113.341|Cacna1b|1:8;11:16 (ssRNA) RNA: GGGAGUUCUACAGUCCGACGAUCGCUUCGAUAUCCGCAUGCUACACACACAAGCACACAUCAGCAAGUGGCUAUUGUCAACCAUAGGGCUAUGCAACAAAAGACACAUUACUAGAAACAAAACACAAGACCACCACUUGGUCUAGGGUUUCAGCAUGAUUGUGACCAAACCUUUUAUAGAAUUUCCUUAUACAAAGGCACAAUACCCUGAAACUUUAACAGAGUAUUUUAUUCCAGUAGGGUAAAAUUAAACGGGACUCUUGGACUGCGCAUGUGACUGCACCCACGUUGCAACAGAGAAGGACUCUUGCGGUCGCACUAGUGUGGAAUUCUCGGGUGUCAAGG	0.234 R (bound/input frequency ratio)

Then there is this binder:
input: # query: binding signal of entry ENSMUSG00000004113.162|Cacna1b (ssRNA) RNA: GGGAGUUCUACAGUCCGACGAUCGCUUCGAUAUCCGCAUGCUAGGUUUUCAGUCACAACACUUUCACUGUUUGUCAUUUCUAUGUAGUUGAUCUAGAAAAAGCAGAAAUCAAAACAGGAAAGGAAAUGUUUGUGUAACUUUAAAAAAAAAGUCAACAUGUAGGAAGGUCUCCAUUUUGCAUUGUUUCUGUGUCUUGUAUGCAAUGUUCCUGUAUGUUUCUACCCUGCCUGGGAUGUCCCCAAUGACCCUGGCUCCUCUGCUCAACCAAGUGCCUGAUCUCUGGCUCUGAGCAUCGUGGAUGAGCUCUUGCGGUCGCACUAGUGUGGAAUUCUCGGGUGUCAAGG
output: 1.13 R (bound/input frequency ratio)
